- assayDetails: logP determination by HPLC on a reversed-phase column (C18)
- Assay type: physicochemical
- assayContext: HPLC-MS method a)
The following compounds are shown together with reported logP^a) values.
measurementLabel: logP^a)

- Cc1cc(C(F)(C(F)(F)F)C(F)(F)F)cc(C)c1-n1cc(-c2cccc(C(=O)NC3CC3)c2)cn1: 3.3
- CCc1cc(C(F)(F)C(F)(F)F)cc(C)c1-n1cc(-c2ccc(Cl)c(C(=O)NC3(C#N)CC3)c2)cn1: 4.2
- Cc1cc(C(F)(C(F)(F)F)C(F)(F)F)cc(C)c1-n1cc(-c2cc(C(=O)NC3CC3)c(Cl)cc2F)cn1: 4.5
- CCc1cc(C(F)(C(F)(F)F)C(F)(F)F)cc(C)c1-n1cc(-c2ccc(Cl)c(C(=O)NC3(C#N)CC3)c2F)cn1: 4.6
- Cc1cc(C(F)(C(F)(F)F)C(F)(F)F)cc(Cl)c1-n1cc(-c2ccc(Cl)c(C(=O)NC3CC3)c2)cn1: 4.4
- Cc1cc(C(F)(C(F)(F)F)C(F)(F)F)cc(C)c1-n1cc(-c2ccc(Cl)c(C(=O)NC3CC3)c2)cn1: 4.4
- Cc1cc(C(F)(C(F)(F)F)C(F)(F)F)cc(C)c1-n1cc(-c2cnc(Cl)c(C(=O)NC3(C#N)CC3)c2)cn1: 3.7
- CCc1cc(C(F)(C(F)(F)F)C(F)(F)F)ccc1-n1cc(-c2cncc(C(=O)NC3(C#N)CC3)c2)cn1: 3.2
- Cc1cc(C(F)(C(F)(F)F)C(F)(F)F)cc(C)c1-n1cc(-c2cnc(Cl)c(C(=O)NC3CC3)c2)cn1: 3.8
- CCc1cc(C(F)(C(F)(F)F)C(F)(F)F)cc(C)c1-n1cc(-c2ccc(Cl)c(C(=O)NC3CC3)c2)cn1: 4.7
- Cc1cc(C(F)(C(F)(F)F)C(F)(F)F)cc(C)c1-n1cc(-c2cncc(C(=O)NC3CC3)c2)cn1: 3.4
- O=C(NC1CC1)c1cc(-c2cnn(-c3ccc(C(F)(C(F)(F)F)C(F)(F)F)cc3Cl)c2)ccc1Cl: 4.3
- CN(C(=O)c1cc(-c2cnn(-c3c(Cl)cc(C(F)(C(F)(F)F)C(F)(F)F)cc3Cl)c2)cnc1Cl)C1CC1: 4.4
- N#CC1(NC(=O)c2cc(-c3cnn(-c4c(Cl)cc(OC(F)(F)F)cc4Cl)c3)ccc2Cl)CC1: 3.6
- N#CC1(NC(=O)c2cc(-c3cnn(-c4c(Cl)cc(C(F)(C(F)(F)F)C(F)(F)F)cc4C(F)(F)F)c3)ccc2Cl)CC1: 4.3

###

- assayDetails: logP determination by HPLC on a reversed-phase column (C18)
- Assay type: physicochemical
- assayContext: HPLC-MS method a), reversed-phase column (C18)
measurementLabel: logP^a)

• CNc1ncc(-c2cnn(-c3c(Cl)cc(C(F)(C(F)(F)F)C(F)(F)F)cc3Cl)c2)cc1C(=O)NC1CC1 = 3.5
• N#CC1(NC(=O)c2cc(-c3cnn(-c4c(Cl)cc(C(F)(C(F)(F)F)C(F)(F)F)cc4C(F)(F)F)c3)cnc2Cl)CC1 = 4.0
• O=C(NC1CC1)c1cc(-c2cnn(-c3c(Cl)cc(C(F)(C(F)(F)F)C(F)(F)F)cc3OC(F)(F)F)c2)ccc1Cl = 4.6
• Cc1ncc(-c2cnn(-c3c(Cl)cc(C(F)(C(F)(F)F)C(F)(F)F)cc3C(F)(F)F)c2)cc1C(=O)N(C)C1(C#N)CC1 = 3.9
• CCc1cc(C(F)(C(F)(F)F)C(F)(F)F)cc(C)c1-n1cc(-c2cnc(Cl)c(C(=O)NC3CC3)c2)cn1 = 4.2
• Cc1cc(C(F)(C(F)(F)F)C(F)(F)F)cc(C(F)(F)F)c1-n1cc(-c2cnc(C)c(C(=O)N(C)C3(C#N)CC3)c2)cn1 = 3.9
• O=C(NC1CC1)c1cc(-c2cnn(-c3c(Cl)cc(C(F)(C(F)(F)F)C(F)(F)F)cc3Cl)c2)cnc1NC1CC1 = 3.4
